Attribute: residual activity
Target: Serine/threonine-protein kinase D1 (Homo sapiens) (UniProt Q15139)
Sequence (Q15139 whole entry): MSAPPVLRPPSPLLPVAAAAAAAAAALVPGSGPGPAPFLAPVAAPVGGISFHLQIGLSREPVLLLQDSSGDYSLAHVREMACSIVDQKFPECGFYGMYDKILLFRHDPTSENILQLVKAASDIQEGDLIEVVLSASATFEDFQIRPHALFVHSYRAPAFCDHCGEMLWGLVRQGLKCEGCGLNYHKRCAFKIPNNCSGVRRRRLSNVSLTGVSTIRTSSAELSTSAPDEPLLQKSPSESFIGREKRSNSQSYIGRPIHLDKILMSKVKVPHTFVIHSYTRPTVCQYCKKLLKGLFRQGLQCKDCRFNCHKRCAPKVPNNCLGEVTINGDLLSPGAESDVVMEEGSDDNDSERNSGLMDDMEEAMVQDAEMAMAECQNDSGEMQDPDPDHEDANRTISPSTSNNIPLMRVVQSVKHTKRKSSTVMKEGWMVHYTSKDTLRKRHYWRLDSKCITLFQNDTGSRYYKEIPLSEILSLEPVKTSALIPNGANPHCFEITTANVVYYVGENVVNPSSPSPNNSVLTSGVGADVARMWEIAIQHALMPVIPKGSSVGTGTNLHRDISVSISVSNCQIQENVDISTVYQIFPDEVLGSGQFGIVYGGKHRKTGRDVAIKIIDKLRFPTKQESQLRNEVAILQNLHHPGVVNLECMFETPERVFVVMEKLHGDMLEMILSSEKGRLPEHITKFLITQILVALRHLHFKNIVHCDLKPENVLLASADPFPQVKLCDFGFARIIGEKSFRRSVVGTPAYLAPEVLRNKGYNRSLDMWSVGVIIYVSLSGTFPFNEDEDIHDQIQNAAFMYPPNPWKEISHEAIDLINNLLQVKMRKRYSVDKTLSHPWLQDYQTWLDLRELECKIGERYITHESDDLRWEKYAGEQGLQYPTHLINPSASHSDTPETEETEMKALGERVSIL
Conditions: at 10 µM
Numbers only; they are read as %.

The following compounds have reported results that may help.
N#C/C(=C(\N)Sc1ccc(N)cc1)c1ccccc1C(F)(F)F ... 68
c1ccc(-c2n[nH]c3c2oc2ccccc23)cc1 ... 72
Cn1cc(/C=C2\C(=O)Nc3ccc(S(N)(=O)=O)cc32)c2ccccc21 ... 59
O=C(Nc1cccc(Nc2nccc(Nc3cccc(C(F)(F)F)c3)n2)c1)C1CC1 ... 125
Nc1n[nH]c2nnc(-c3c(-c4ccccc4)nn4ccccc34)cc12 ... 12
Cc1nc2cc3nc(-c4cccs4)cnc3cc2n1C ... 95

Q) Recorded residual activity for `COc1ccc(OC)c2c(=S)c3ccccc3[nH]c12` , please?
A) 73

Q) Recorded residual activity for `Oc1ccc(-c2nc(-c3ccc(F)cc3)c(-c3ccncc3)[nH]2)cc1` , please?
A) 36

Q) Recorded residual activity for `Nc1ccc2ncnc(NCCc3ccc(Oc4ccccc4)cc3)c2c1` , please?
A) 82

Q) Recorded residual activity for `CN(C)CCCn1cc(C2=C(c3c[nH]c4ccccc34)C(=O)NC2=O)c2ccccc21` , please?
A) 43

Q) Recorded residual activity for `O=C1c2ccccc2-[n+]2ccc3c([nH]c4ccccc43)c21` , please?
A) 71

Q) Recorded residual activity for `O=C1Nc2cc(Br)ccc2/C1=C1/Nc2ccccc2/C1=N\O` , please?
A) 100

Q) Recorded residual activity for O=C1Nc2ccccc2/C1=C1/Nc2ccccc2/C1=N\OCCC(O)CO (configuration not stated) , please?
A) 32

Q) Recorded residual activity for `CC[n+]1c(/C=C/N(C)c2ccccc2)n(-c2ccccc2)c2ccc(-c3nc4ccccc4s3)cc21` , please?
A) 90

Q) Recorded residual activity for `COc1ccc(CNc2nc(N(CCO)CCO)nc3c2ncn3C(C)C)cc1` , please?
A) 71

Q) Recorded residual activity for `Nc1cccc(-c2cc3c(Oc4cccc(O)c4)ncnc3[nH]2)c1` , please?
A) 51

Q) Recorded residual activity for `O=C(Nc1cccc(Nc2cc(Nc3cccc(C(F)(F)F)c3)ncn2)c1)C1CC1` , please?
A) 88

----------
Target: Tyrosine-protein kinase SYK (Homo sapiens)
Conditions: at 10 µM
Attribute: residual activity
Numbers only; they are read as %.

Cc1ccc(NC2=CC(=O)c3sc(C)nc3C2=O)cc1 ... 113

Q) Return residual activity measured with Tyrosine-protein kinase SYK (Homo sapiens) given this compound: `O=[N+]([O-])c1ccc(-c2nc(-c3ccc(F)cc3)c(-c3ccncc3)[nH]2)cc1`
A) 107

Q) Return residual activity measured with Tyrosine-protein kinase SYK (Homo sapiens) given this compound: `Ic1cccc(CSc2nnc(-c3ccncc3)o2)c1`
A) 96

Q) Return residual activity measured with Tyrosine-protein kinase SYK (Homo sapiens) given this compound: `O=C1NC(=O)/C(=C/c2ccc3c(c2)OC(F)(F)O3)S1`
A) 73

Q) Return residual activity measured with Tyrosine-protein kinase SYK (Homo sapiens) given this compound: `COc1cc2ncnc(N3CCN(C(=O)Nc4ccc(Oc5ccccc5)cc4)CC3)c2cc1OC`
A) 83

Q) Return residual activity measured with Tyrosine-protein kinase SYK (Homo sapiens) given this compound: `CC(C)n1cnc2/c(=N/c3cccc(Cl)c3)nc(NCCO)[nH]c21`
A) 56

Q) Return residual activity measured with Tyrosine-protein kinase SYK (Homo sapiens) given this compound: `Cc1cc2ncc(-c3ccccc3)nc2cc1C`
A) 108

Q) Return residual activity measured with Tyrosine-protein kinase SYK (Homo sapiens) given this compound: `CO[C@H]1C[C@@H]2CC[C@@H](C)[C@@](O)(O2)C(=O)C(=O)N2CCCC[C@H]2C(=O)O[C@H]([C@H](C)C[C@@H]2CC[C@@H](O)[C@H](OC)C2)CC(=O)[C@H](C)/C=C(\C)[C@@H](O)[C@@H](OC)C(=O)[C@H](C)C[C@H](C)/C=C/C=C/C=C/1C`
A) 78

Q) Return residual activity measured with Tyrosine-protein kinase SYK (Homo sapiens) given this compound: `COc1cc2ncnc(Nc3ccc(Oc4ccccc4)cc3)c2cc1OC`
A) 111

Q) Return residual activity measured with Tyrosine-protein kinase SYK (Homo sapiens) given this compound: `Oc1ccc(Nc2nc(-c3ccc(Cl)cc3)cs2)cc1`
A) 114

Q) Return residual activity measured with Tyrosine-protein kinase SYK (Homo sapiens) given this compound: `COc1cc2ncc(-c3ccccc3)nc2cc1OC`
A) 100

Q) Return residual activity measured with Tyrosine-protein kinase SYK (Homo sapiens) given this compound: `CC(C)n1cnc2c(NCc3ccccc3)nc(NCCCO)nc21`
A) 105

Q) Return residual activity measured with Tyrosine-protein kinase SYK (Homo sapiens) given this compound: `CNc1cc2c(Nc3cccc(Br)c3)ncnc2cn1`
A) 90

Q) Return residual activity measured with Tyrosine-protein kinase SYK (Homo sapiens) given this compound: O=C1Nc2ccccc2/C1=C1/Nc2ccccc2/C1=N\OCCC(O)CO (stereo not drawn)
A) 42

Q) Return residual activity measured with Tyrosine-protein kinase SYK (Homo sapiens) given this compound: `Nc1ccc2ncnc(NCCc3ccc(Oc4ccccc4)cc3)c2c1`
A) 78

Q) Return residual activity measured with Tyrosine-protein kinase SYK (Homo sapiens) given this compound: `CCOc1cc2ncnc(Nc3cccc(Br)c3)c2cc1OCC`
A) 58

Q) Return residual activity measured with Tyrosine-protein kinase SYK (Homo sapiens) given this compound: `Cn1cc(/C=C2\C(=O)Nc3ccc(S(N)(=O)=O)cc32)c2ccccc21`
A) 28

Q) Return residual activity measured with Tyrosine-protein kinase SYK (Homo sapiens) given this compound: `NC(=O)c1ccc2[nH]c(-c3ccc(Oc4ccc(Cl)cc4)cc3)nc2c1`
A) 96
